Test system: Caco-2 cells
Assay: Caco-2 permeability study with or without P-gp inhibitor GF120918
Details: (Papp A-B with inhibitor − without inhibitor)/Papp A-B with inhibitor
Where a SMILES comes first, the peptide text is derived from it. [ ]: non-standard residue; d: D form. The star is where a group is joined. ξ: configuration not given here. ξpY = NC(Cc1ccc(OP(=O)(O)O)cc1)C(=O)O; Ile(3ξ) = CCC(C)[C@H](N)C(=O)O; Hexanoyl = CCCCCC(=O)*; Ahx = NCCCCCC(=O)O

- COMPOUND: "CCCCCC(=O)NC(Cc1ccc(OP(=O)(OCCN(C)C)OCCN(C)C)cc1)C(=O)NC(C(=O)NCCCCCC(N)=O)C(C)CC (stereo not shown) [Compound A18]"
  Abs. Quotient: 0.54
- COMPOUND: "CCCCCC(=O)NC(Cc1ccc(OC(=O)C(N)C(C)C)cc1)C(=O)NC(C(=O)NCCCCCC(N)=O)C(C)CC (stereo not shown) [Compound A27] (Hexanoyl-Tyr(Val)-Ile-[Ahx]-NH2; configuration not given here)"
  Abs. Quotient: 0.70
- COMPOUND: "CCCCCC(=O)NC(Cc1ccc(OC(=O)N2CCN(C)CC2)cc1)C(=O)NC(C(=O)NCCCCCC(N)=O)C(C)CC (stereo not shown) [Compound A20]"
  Abs. Quotient: 0.88
- COMPOUND: "CCCCCC(=O)NC(Cc1ccc(OP(=O)(O)O)cc1)C(=O)N[C@H](C(=O)NCCCCCC(N)=O)C(C)CC.N.N (stereo partly shown) [Compound A29] (Hexanoyl-[ξpY]-[Ile(3ξ)]-[Ahx]-NH2)"
  Abs. Quotient: 0.83
